The origin of these recorded values is patent US20230265185A1.

Molecular target: T1, recombinant extracellular domain of the predominant human CD22-beta isoform (CD22-ECD) (human, UniProt P20273 20-687, CHO-expressed glycoprotein. Capture on an SA chip implies biotinylation, but the patent does not state it for SPR.)
T1 construct: Expressed in CHO-3E7 cells, IMAC and SEC purified, monomeric fraction; Results say it was immobilized onto a CM5 dextran chip; also called human CD22-ECD; hCD22 ecto-domain
T1 sequence: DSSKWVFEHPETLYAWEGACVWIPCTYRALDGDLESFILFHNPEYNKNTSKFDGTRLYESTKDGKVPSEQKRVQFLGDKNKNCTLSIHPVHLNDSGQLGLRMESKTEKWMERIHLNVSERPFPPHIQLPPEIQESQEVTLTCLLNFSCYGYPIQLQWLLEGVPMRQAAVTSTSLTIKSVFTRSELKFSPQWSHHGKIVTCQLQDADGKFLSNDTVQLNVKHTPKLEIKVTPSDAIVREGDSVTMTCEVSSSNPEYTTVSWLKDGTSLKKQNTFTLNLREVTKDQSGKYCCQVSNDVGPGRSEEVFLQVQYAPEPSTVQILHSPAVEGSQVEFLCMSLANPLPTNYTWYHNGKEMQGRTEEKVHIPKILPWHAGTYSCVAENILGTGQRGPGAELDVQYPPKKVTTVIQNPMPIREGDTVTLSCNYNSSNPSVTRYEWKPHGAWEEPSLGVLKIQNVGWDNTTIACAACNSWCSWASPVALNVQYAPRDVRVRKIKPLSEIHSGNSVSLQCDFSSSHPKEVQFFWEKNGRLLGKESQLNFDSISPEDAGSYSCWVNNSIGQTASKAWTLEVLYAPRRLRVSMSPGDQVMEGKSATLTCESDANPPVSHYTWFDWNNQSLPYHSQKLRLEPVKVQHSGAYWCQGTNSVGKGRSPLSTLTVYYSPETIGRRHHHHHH
Assay: SPR, Biacore T200, VHH over immobilized CD22-ECD
READOUT: koff (s⁻¹)

[[record]]
binder = "hCD22pas-79 (VHH, single biotin at the VHH C-terminal (biotinylation signal sequence), llama VHH, expressed in E. coli TG1, IMAC purified, monomeric SEC fraction; also called VHH # 18) VHH: QVKLEESGGGLVQPGGSLRLSCTVSGRTSSVYGMAWFRQTPGKEREFVAAMSWSGGPTYFADSVKGRFGSSRDNAKNTVYLQMNGLRPEDTAVYYCAVRIRRTLLEPLTKETLYDYWGQGTQVTVSS"
readout = "koff"
unit_text = "s⁻¹"
observed_measurement = 0.00397

[[record]]
binder = "hCD221ug-93 (VHH, single biotin at the VHH C-terminal (biotinylation signal sequence), llama VHH, expressed in E. coli TG1, IMAC purified, monomeric SEC fraction; also called VHH # 11) VHH: QVKLEESGGGLVQAGGSLRLSCAASGSTFSSSVMNWYRQAPGKQRELVAVITSSGSTHYADSVKGRFTISRDNAKNTVNLQMNSLKPEDTAVYYCNAQYGRRSDWGQGTQVTVSS"
readout = "koff"
unit_text = "s⁻¹"
observed_measurement = 0.0105

[[record]]
binder = "hCD22pas-10 (VHH, single biotin at the VHH C-terminal (biotinylation signal sequence), llama VHH, expressed in E. coli TG1, IMAC purified, monomeric SEC fraction; also called VHH # 6) VHH: QVQLVESGGGLVQPGDSLRLSCTVSGFTSDYYAMGWFRQAPGKEREAVSCISSSDGVTYYADSVRGRFTISRDNAKNTVYLEMNSLKPEDTAIYYCAVDKPFYDGGYLYTCPVDFDSWGQGTQVTVSS"
readout = "koff"
unit_text = "s⁻¹"
observed_measurement = 0.00289

[[record]]
binder = "hCD22pas-32 (VHH, single biotin at the VHH C-terminal (biotinylation signal sequence), llama VHH, expressed in E. coli TG1, IMAC purified, monomeric SEC fraction; also called VHH # 15; 6-hCD22 pas-32) VHH: QVQLVESGGGLVQAGGSLRLSCAVSGRIFRSYVLGWFRQAPGKERELVARIGWSDTYYADSVKGRFTISRDNAKNTVDLQMNSLKPEDTAVYYCAANSPPYGPQRDEFGYWGQGTQVTVSS"
readout = "koff"
unit_text = "s⁻¹"
observed_measurement = 0.00369

